experimental.conditions: 338.15 K; 101.33 kPa; Liquid; Falling or rolling sphere viscometry
Each entry below carries its recorded viscosity.
Response body: numeric value in mPa·s, unit text excluded.

CCCCCCCC(=O)[O-].CCCCCC[NH+](CCCCCC)CCCCCC [trihexylammonium octanoate]; 4.1
CCCCCCCC(=O)[O-].CCCCCCCC[NH+](CCCCCCCC)CCCCCCCC [trioctylammonium octanoate]; 5.54
CCCCCC(=O)[O-].CCCCCCCC[NH+](CCCCCCCC)CCCCCCCC [trioctylammonium hexanoate]; 4.67

Query: Which measured viscosity value corresponds to CCCC(=O)[O-].CCCCCCCC[NH+](CCCCCCCC)CCCCCCCC [trioctylammonium butanoate] ?
Result: 4.28

Query: Value lookup for viscosity; key = CCCCCC(=O)[O-].CCCCCC[NH+](CCCCCC)CCCCCC [trihexylammonium hexanoate]
Result: 3.5

Query: viscosity; subject: CCCC(=O)[O-].CCCCCC[NH+](CCCCCC)CCCCCC [trihexylammonium butanoate]
Result: 3.3
